- Tested on: primary AML patient cells (S079)
- method-description: viability relative to DMSO control (fraction); higher = less drug effect (more viable cells)
- test-conditions: 2 µM; 48 h
recorded-metric: viability
Please reply with the number alone, leaving off any unit.

Worked set:
CC[C@H](Nc1ncnc2[nH]cnc12)c1nc2cccc(F)c2c(=O)n1-c1ccccc1
0.793
Nc1nc(F)nc2c1ncn2[C@@H]1O[C@H](CO)[C@@H](O)[C@@H]1O
0.453
CN1CC[C@H](c2c(O)cc(O)c3c(=O)cc(-c4ccccc4Cl)oc23)[C@H](O)C1
0.0261

// next entry
Inquiry: Which viability is reported for this molecule? O=C(Nc1nc2ccccc2n1CCN1CCOCC1)c1cccc([N+](=O)[O-])c1
Reply text: 0.906

* * *

- Test system: primary AML patient cells (S071)
- method-description: viability relative to DMSO control (fraction); higher = less drug effect (more viable cells)
- test-conditions: 0.016 µM; 48 h
recorded-metric: viability

Nc1nc(F)nc2c1ncn2[C@@H]1O[C@H](CO)[C@@H](O)[C@@H]1O
0.997

Inquiry: Which viability is reported for this compound? CC(C)c1cc(-c2n[nH]c(=O)n2-c2ccc3c(ccn3C)c2)c(O)cc1O
Reply text: 0.357

Inquiry: Again, but for CN1CC[C@H](c2c(O)cc(O)c3c(=O)cc(-c4ccccc4Cl)oc23)[C@H](O)C1
Reply text: 0.833

Inquiry: Again, but for CC1(COc2ccc3c(c2)ncn3-c2ccc3cccc(N4CCC(N)CC4)c3n2)COC1
Reply text: 0.672

* * *

- Tested on: primary ALL patient cells (S048)
- method-description: viability relative to DMSO control (fraction); higher = less drug effect (more viable cells)
- test-conditions: 0.6 µM; 48 h
Cut-off 0.7 on viability: below means TRUE, at or above means FALSE.

Inquiry: Lab log: compare recorded viability with 0.7; is it strictly lower for O=C(O)CSc1cc(NS(=O)(=O)c2ccc(Br)cc2)c2ccccc2c1O [UMI-77] ?
Reply text: FALSE

Inquiry: Again, but for CCc1nc(C(N)=O)c(Nc2ccc(N3CCC(N4CCN(C)CC4)CC3)c(OC)c2)nc1NC1CCOCC1 [Gilteritinib]
Reply text: TRUE

Inquiry: Again, but for N#CC[C@H](C1CCCC1)n1cc(-c2ncnc3[nH]ccc23)cn1 [Ruxolitinib]
Reply text: FALSE

Inquiry: Again, but for Nc1nc(=S)c2[nH]cnc2[nH]1 [Thioguanin]
Reply text: TRUE

Inquiry: Again, but for C[C@@H](Oc1cc(-c2cnn(C3CCNCC3)c2)cnc1N)c1c(Cl)ccc(F)c1Cl [Crizotinib]
Reply text: FALSE

* * *

compounds and their reported viability
- System: primary AML patient cells (S060)
- method-description: viability relative to DMSO control (fraction); higher = less drug effect (more viable cells)
- test-conditions: 15 µM; 48 h
Please reply with the number alone, leaving off any unit.

Worked set:
Cc1cc(Nc2ncc(Cl)c(Nc3ccccc3S(=O)(=O)C(C)C)n2)c(OC(C)C)cc1C1CCNCC1
0.0203
C[C@@H](Oc1cc(-c2cnn(C3CCNCC3)c2)cnc1N)c1c(Cl)ccc(F)c1Cl
0.445
Nc1nc(Cl)nc2c1ncn2[C@@H]1O[C@H](CO)[C@@H](O)[C@@H]1F
0.126
CCN1CCN(Cc2ccc(Nc3ncc(F)c(-c4cc(F)c5nc(C)n(C(C)C)c5c4)n3)nc2)CC1
0.112

// next entry
Inquiry: Which viability is reported for this compound? N#Cc1ccnc(N2C(=O)CC[C@H]2C(=O)N(c2cncc(F)c2)[C@H](C(=O)NC2CC(F)(F)C2)c2ccccc2Cl)c1
Reply text: 0.938

* * *

- Test system: primary MCL patient cells (S053)
- method-description: viability relative to DMSO control (fraction); higher = less drug effect (more viable cells)
- test-conditions: 0.008 µM; 48 h
recorded-metric: viability

CC(C)C[C@H](NC(=O)CNC(=O)c1cc(Cl)ccc1Cl)B(O)O
0.872
Cc1nc(Nc2ncc(C(=O)Nc3c(C)cccc3Cl)s2)cc(N2CCN(CCO)CC2)n1
0.882
CC(C)(C)C[C@@H]1N[C@@H](C(=O)N[C@H]2CC[C@H](O)CC2)[C@H](c2cccc(Cl)c2F)[C@]12C(=O)Nc1cc(Cl)ccc12
1.11
COc1cccc2c1C(=O)c1c(O)c3c(c(O)c1C2=O)C[C@@](O)(C(C)=O)C[C@@H]3O[C@H]1C[C@H](N)[C@H](O)[C@H](C)O1
0.692

// next entry
Inquiry: Write down the reported viability of C/C=C1\NC(=O)[C@H]2CSSCC/C=C/[C@H](CC(=O)N[C@H](C(C)C)C(=O)N2)OC(=O)[C@H](C(C)C)NC1=O , test system: primary MCL patient cells (S053).
Reply text: 0.0849

* * *

compounds and their reported viability
- Tested on: primary AML patient cells (S071)
- method-description: viability relative to DMSO control (fraction); higher = less drug effect (more viable cells)
- test-conditions: 0.024 µM; 48 h
Please reply with the number alone, leaving off any unit.

O=C(O)CSc1cc(NS(=O)(=O)c2ccc(Br)cc2)c2ccccc2c1O
0.883
O=C(c1cc(Cc2n[nH]c(=O)c3ccccc23)ccc1F)N1CCN(C(=O)C2CC2)CC1
0.974
Cc1cc(Nc2ncc(Cl)c(Nc3ccccc3S(=O)(=O)C(C)C)n2)c(OC(C)C)cc1C1CCNCC1
0.865

// next entry
Inquiry: Which viability is reported for this compound? Oc1ccc(/C=C/c2cc(O)cc(O)c2)cc1
Reply text: 0.774

* * *

- Tested on: primary FL patient cells (S087)
- method-description: viability relative to DMSO control (fraction); higher = less drug effect (more viable cells)
- test-conditions: 3 µM; 48 h
compounds and their reported viability
Please reply with the number alone, leaving off any unit.

Worked set:
Nc1nc(=S)c2[nH]cnc2[nH]1 [Thioguanin]
0.688
CCc1nc(C(N)=O)c(Nc2ccc(N3CCC(N4CCN(C)CC4)CC3)c(OC)c2)nc1NC1CCOCC1 [Gilteritinib]
0.807

Inquiry: Which viability is reported for this compound? CS(=O)(=O)c1ccc(C(=O)Nc2ccc(Cl)c(-c3ccccn3)c2)c(Cl)c1 [Vismodegib]
Reply text: 0.92

Inquiry: Again, but for O=C(c1cc(Cc2n[nH]c(=O)c3ccccc23)ccc1F)N1CCN(C(=O)C2CC2)CC1 [Olaparib]
Reply text: 0.912

* * *

- System: primary MCL patient cells (S053)
- method-description: viability relative to DMSO control (fraction); higher = less drug effect (more viable cells)
- test-conditions: 1 µM; 48 h
recorded-metric: viability
Please reply with the number alone, leaving off any unit.

CCc1cnn2c(NCc3ccc[n+]([O-])c3)cc(N3CCCC[C@H]3CCO)nc12 [Dinaciclib]
1.08

Inquiry: Which viability is reported for this compound? CC(C)C[C@H](NC(=O)CNC(=O)c1cc(Cl)ccc1Cl)B(O)O [Ixazomib]
Reply text: 0.972

Inquiry: Again, but for Cc1nc(Nc2ncc(C(=O)Nc3c(C)cccc3Cl)s2)cc(N2CCN(CCO)CC2)n1 [Dasatinib]
Reply text: 0.347

Inquiry: Again, but for COc1cccc2c1C(=O)c1c(O)c3c(c(O)c1C2=O)C[C@@](O)(C(C)=O)C[C@@H]3O[C@H]1C[C@H](N)[C@H](O)[C@H](C)O1 [Daunorubicin]
Reply text: 0.446

* * *

- Tested on: primary AML patient cells (S072)
- method-description: viability relative to DMSO control (fraction); higher = less drug effect (more viable cells)
- test-conditions: 3 µM; 48 h
recorded-metric: viability

Worked set:
CNC(=O)c1cc(Oc2ccc(NC(=O)Nc3ccc(Cl)c(C(F)(F)F)c3)cc2)ccn1
1.04
C[C@@H](Oc1cc(-c2cnn(C3CCNCC3)c2)cnc1N)c1c(Cl)ccc(F)c1Cl
0.602
Nc1nc(Cl)nc2c1ncn2[C@@H]1O[C@H](CO)[C@@H](O)[C@@H]1F
0.521
CS(=O)(=O)c1ccc(C(=O)Nc2ccc(Cl)c(-c3ccccn3)c2)c(Cl)c1
0.902
N#CC[C@H](C1CCCC1)n1cc(-c2ncnc3[nH]ccc23)cn1
0.913

Inquiry: Which viability is reported for this compound? O=C(Nc1cccc(C(F)(F)F)c1)Nc1cc(S(=O)(=O)NC2CC2)ccc1-c1ccsc1
Reply text: 0.764

* * *

- System: primary AML patient cells (S019)
- method-description: viability relative to DMSO control (fraction); higher = less drug effect (more viable cells)
- test-conditions: 0.008 µM; 48 h
compounds and their reported viability

Worked set:
COc1cccc2c1C(=O)c1c(O)c3c(c(O)c1C2=O)C[C@@](O)(C(C)=O)C[C@@H]3O[C@H]1C[C@H](N)[C@H](O)[C@H](C)O1 [Daunorubicin]
1.33
C/C=C1\NC(=O)[C@H]2CSSCC/C=C/[C@H](CC(=O)N[C@H](C(C)C)C(=O)N2)OC(=O)[C@H](C(C)C)NC1=O [Romidepsin]
0.52
Nc1cccc2c1CN(C1CCC(=O)NC1=O)C2=O (stereo not given) [Lenalidomide]
1.07
CC(C)(C)C[C@@H]1N[C@@H](C(=O)N[C@H]2CC[C@H](O)CC2)[C@H](c2cccc(Cl)c2F)[C@]12C(=O)Nc1cc(Cl)ccc12 [MI-773]
1.34

// next entry
Inquiry: Write down the reported viability of CC#CC(=O)N1CCC[C@H]1c1nc(-c2ccc(C(=O)Nc3ccccn3)cc2)c2c(N)nccn12 [Acalabrutinib (ACP-196)] , test system: primary AML patient cells (S019).
Reply text: 1.09
